Reference source: PubChem BioAssay

Measured inhibition, listed per entry for reference.
Test system: Rat fibroblasts (CREF)
Assay: Peg3 promoter luciferase inhibitors, potency, dose response, cell-based, HeLa, CREF/GAPDH counter-screen panel (AID 624167)
Details: CREF/GAPDH counter-screens; run 1, dose range 1, at 100 µM (top of the series)
The answer is to be given in %; state only the numeric part.

Here is how some compounds turned out for inhibition.
[
  {
    "smiles": "O=C(/C=C\\Nc1ccc2c(c1)OCO2)c1ccccn1",
    "system under test": "Rat fibroblasts (CREF)",
    "unit spec": "%",
    "inhibition": 98.9
  },
  {
    "smiles": "CN(c1ccc2nc3ccccc3c(=O)n2n1)C1CCCCC1",
    "system under test": "Rat fibroblasts (CREF)",
    "unit spec": "%",
    "inhibition": 98.4
  },
  {
    "smiles": "CS(=O)(=O)c1ccc(-c2cn3cc(C(=O)O)ccc3n2)cc1",
    "system under test": "Rat fibroblasts (CREF)",
    "unit spec": "%",
    "inhibition": 71
  },
  {
    "smiles": "Cc1cc(Br)ccc1NC(=O)CNC(=O)Cn1ncc(Cl)c(Cl)c1=O",
    "system under test": "Rat fibroblasts (CREF)",
    "unit spec": "%",
    "inhibition": 48.9
  }
]

Query (compound): `COc1ccc(-c2cc3nc(C)n(N)c(=O)c3s2)cc1` ; field requested: inhibition
99

Query (compound): `O=C(O)c1ccc(N/N=C/c2ccc3c(c2)OCO3)cc1` ; field requested: inhibition
67.2

* * *

Assay: TRAIL sensitizers in caspase-8 expressing neuroblastoma cells, dose response, NB7 cells plus caspase-8, luminescence, panel (AID 652002)
Settings: NB7 neuroblastoma +caspase-8, no TRAIL, compound-alone cytotoxicity counter-screen, luminescence viability, NB7+Caspase-8, run 2; at 12.5 µM (top of the series) unless noted
Measured activity, % sensitization, listed per entry for reference.
The answer is to be given in %; state only the numeric part.

[
  {
    "smiles": "Cc1onc(-c2c(Cl)cccc2Cl)c1C(=O)ONC(=O)c1ccccc1",
    "assay metric": "activity, % sensitization",
    "result number": -9.25
  },
  {
    "smiles": "Cc1ccc(NC(=O)c2ccccc2O)cc1",
    "assay metric": "activity, % sensitization",
    "result number": 31.3
  },
  {
    "smiles": "CCOC(=O)c1cnc2c(-c3ccccc3)cnn2c1N",
    "assay metric": "activity, % sensitization",
    "result number": 5.35
  },
  {
    "smiles": "CCOC(=O)c1sc(NC(=O)c2cc(-c3ccccc3C)nc3ccccc23)c(C#N)c1C",
    "assay metric": "activity, % sensitization",
    "result number": -11.3
  }
]

Query (compound): `COc1cccc(NC(=O)Nc2nccc(C)n2)c1` ; field requested: activity, % sensitization
11.9

Query (compound): `O=C(Nc1ccc2[nH]ccc2c1)c1cccs1` ; field requested: activity, % sensitization
43.5

* * *

Assay: caspase-8 TRAIL sensitization, hit retest, confirmation, cell-based, NB7+caspase-8, with/without TRAIL, luminescence panel (AID 651596)
Settings: NB7 neuroblastoma + caspase-8, without TRAIL, luminescence viability, without TRAIL, mean of runs, at 10 µM
assay metric: activity (%)
The answer is to be given in %; state only the numeric part.

[
  {
    "compound": "COc1ccc(/C=N/Nc2cc(C)nc3ccc(Br)cc23)cc1",
    "assay metric": "activity",
    "result number": 78
  },
  {
    "compound": "Clc1ccc(OCc2nn3c(C4CCCCC4)nnc3s2)cc1",
    "assay metric": "activity",
    "result number": 71.2
  },
  {
    "compound": "CCOc1ccccc1NC(=O)c1nc(S(=O)(=O)Cc2cccc(C)c2)ncc1Cl",
    "assay metric": "activity",
    "result number": 97.2
  }
]

Kindly consider the entry below.
Query (compound): `COc1ccc(-c2cc3nc[nH]c(=O)c3s2)cc1` ; field requested: activity
58.2

* * *

Assay: inhibitors of PAF-induced NFkB signaling in CF airway cells, dose response, cell-based, uHTS hits, panel, cytotoxicity readout (AID 624344)
Settings: CF bronchial epithelial cells, PAF-induced NFkB reporter inhibition, with PAF, run 2; at 79 µM (top of the series) unless noted
Measured inhibition, listed per entry for reference.
Report as: number unit

Here is how some compounds turned out for inhibition.
[
  {
    "compound": "Oc1ccc(Br)cc1-c1nc2cnccn2c1NC1CCCC1",
    "inhibition": "97.8%"
  },
  {
    "compound": "COC1(OC)C=CC(=O)C=C1NC(=O)c1ccccc1OC(C)=O",
    "inhibition": "113%"
  },
  {
    "compound": "CCOC(=O)c1c(-c2ccccc2)oc2cc(Br)c(O)c(C=O)c12",
    "inhibition": "84.3%"
  },
  {
    "compound": "COc1cccc(C(=O)N2C(C(C)C)COc3cc(Br)ccc3S2(=O)=O)c1 (configuration not stated)",
    "inhibition": "101%"
  },
  {
    "compound": "O=C(Nc1ccc2c(c1)OCCO2)c1cc(-c2ccccn2)nc2ccc(Br)cc12",
    "inhibition": "68.9%"
  }
]

Query (compound): `CCCCN(c1ccccc1)c1ncnc(N)c1[N+](=O)[O-]` ; field requested: inhibition
101%

Query (compound): `O=C(CSc1nc(C2CC2)nc2ccccc12)Nc1cccc(O)c1` ; field requested: inhibition
79.8%

Query (compound): `CN(C)CCCN(C(=O)CCS(=O)(=O)c1ccccc1)c1nc2cc3c(cc2s1)OCO3` ; field requested: inhibition
73%

Query (compound): `CCc1nc(Cl)c(C#N)c2c1CCCC2` ; field requested: inhibition
105%

Query (compound): `CC(=O)Nc1ccc(S(=O)(=O)N2c3ccccc3C(C)=CC2(C)C)cc1` ; field requested: inhibition
56.4%

Query (compound): CC1CCc2c(sc3ncnc(N4CCOCC4)c23)C1 (configuration not stated) ; field requested: inhibition
101%

Query (compound): `O=C(NCc1ccco1)c1nc2c(nnn2Cc2ccccc2Cl)c(=O)[nH]1` ; field requested: inhibition
107%

Query (compound): `Cc1cc2cc(CCNC(=O)C(=O)c3c[nH]c4ccccc34)c(=O)[nH]c2cc1C` ; field requested: inhibition
95.5%

* * *

Target: Tumor necrosis factor receptor superfamily member 10B (Homo sapiens)
Assay: caspase-8 TRAIL sensitization, hit retest, confirmation, cell-based, NB7+caspase-8, with/without TRAIL, luminescence panel (AID 651596)
Details: NB7 neuroblastoma + caspase-8, TRAIL sensitization, luminescence viability, with TRAIL, mean of runs, at 10 µM, stronger effect = higher value
# if measured activity < 70%: YES  # else: NO

Look over these answered cases.
[
  {
    "compound": "O=c1c2ccccc2oc2ccc(C#CC3(O)CCCCC3)cc12",
    "label value": "NO"
  },
  {
    "compound": "Clc1ccc(-c2nc(-c3ccccn3)no2)cc1Cl",
    "label value": "NO"
  },
  {
    "compound": "Brc1nc(-c2ccccc2)nc(-c2ccccc2)c1Br",
    "label value": "NO"
  }
]

Report whether reported activity is lower than 70% (strictly) for `COc1ccc(C(=O)Nc2ccc(C)cn2)c(OC)c1`
NO

Report whether reported activity is lower than 70% (strictly) for `Cc1cccc(Nc2nc(N)nc(CCl)n2)c1C`
NO

Report whether reported activity is lower than 70% (strictly) for Cc1cccc2sc(NNC(=O)c3ccc(S(=O)(=O)N4CC(C)CC(C)C4)cc3)nc12 (configuration not stated)
YES

Report whether reported activity is lower than 70% (strictly) for `Nc1nc(-c2ccc(-c3ccccc3)cc2)cs1`
YES

* * *

Molecular target: Sentrin-specific protease 6 (Homo sapiens) (UniProt Q9GZR1)
Sequence (Q9GZR1 628-1112 limits assumed): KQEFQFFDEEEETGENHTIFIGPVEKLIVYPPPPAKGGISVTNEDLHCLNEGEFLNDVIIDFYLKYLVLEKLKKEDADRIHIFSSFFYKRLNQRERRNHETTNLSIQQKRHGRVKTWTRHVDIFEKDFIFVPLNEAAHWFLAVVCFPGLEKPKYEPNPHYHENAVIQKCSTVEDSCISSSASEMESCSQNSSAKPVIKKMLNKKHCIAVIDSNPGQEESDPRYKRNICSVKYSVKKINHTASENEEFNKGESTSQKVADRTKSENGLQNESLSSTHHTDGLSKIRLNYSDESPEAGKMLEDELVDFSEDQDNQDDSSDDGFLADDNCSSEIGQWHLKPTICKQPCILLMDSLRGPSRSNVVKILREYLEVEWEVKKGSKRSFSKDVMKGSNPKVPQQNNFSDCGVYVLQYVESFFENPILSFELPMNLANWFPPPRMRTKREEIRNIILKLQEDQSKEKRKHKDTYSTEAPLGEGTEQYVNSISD
Test: SENP6 protease inhibitors, confirmation, biochemical, luminescence, single concentration (AID 488915)
Conditions: recombinant SENP6, Z-RLRGG-aminoluciferin luminescence; at 12.5 µM; stronger effect = higher value
This is one part of the list.
assay metric: inhibition (%)
The answer is to be given in %; state only the numeric part.

Query (compound): `O=C(Nc1ccccc1)c1ccc2c(c1)OCCCO2` ; field requested: inhibition
77.7

Query (compound): `COCCN(CCOC)c1nc(N)c2c(N)nc3c(c2c1C#N)CC(=O)N3Cc1ccc(Cl)cc1` ; field requested: inhibition
-0.6

Query (compound): `Cc1ccc(O)c(NC(=O)c2cc(-c3ccco3)on2)c1` ; field requested: inhibition
36.5

Query (compound): `c1ccc(Nc2nc(-c3ccncc3)cs2)nc1` ; field requested: inhibition
85.1

Query (compound): `c1c2c(cc3sc(N4CCCCC4)nc13)OCCO2` ; field requested: inhibition
98.6

Query (compound): `CC(=O)Nc1ccc(/C=N/NC(=O)c2cccs2)cc1` ; field requested: inhibition
34
